- assayTarget: T1, DFNB31_3, Q9P202
- T1 sequence (Q9P202 811-907, limits assumed, looked up): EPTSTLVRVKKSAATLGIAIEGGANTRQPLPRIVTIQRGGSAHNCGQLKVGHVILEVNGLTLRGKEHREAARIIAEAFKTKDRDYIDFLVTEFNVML
- assay: holdup assay
- Design: key: below the threshold = too weak to quantify, mostly under pKd 3.1 to 4
- conditions: plain residues with an end cap or a label only (N-terminal biotin on a linker: ado-ado)
measuredParameter: pKd

# example entries with known answers
binder="SNAGNTATKA [NOSTRIN, Q8IVI9]" recordedvalue="below the threshold"
binder="PDGQCTVTEV [RNF146, Q9NTX7]" recordedvalue=3.99
binder="PLSPEQPTKL [TRIM50, Q86XT4]" recordedvalue=3.93
binder="SAAKVLTSMC [GHRHR, Q02643]" recordedvalue=4.09
binder="PKRSFIESNV [TANC1, Q9C0D5]" recordedvalue="below the threshold"

What value of pKd has been reported for the following binder? QMNQTLPVQV [EPHB3, P54753] below the threshold

Continue with SGSLKLMTTV [DACT1, Q9NYF0] 4.03

Cool, now QGLAERISVL [PRKD2, Q9BZL6] 4.26
